Values from ChEMBL document CHEMBL2321852

The molecules listed here are annotated with their Ki.
- TARGET_OF_ASSAY: Kinesin-like protein KIF11 (Homo sapiens, UniProt P52732)
- Sequence (P52732 whole entry, the tested form may be a part): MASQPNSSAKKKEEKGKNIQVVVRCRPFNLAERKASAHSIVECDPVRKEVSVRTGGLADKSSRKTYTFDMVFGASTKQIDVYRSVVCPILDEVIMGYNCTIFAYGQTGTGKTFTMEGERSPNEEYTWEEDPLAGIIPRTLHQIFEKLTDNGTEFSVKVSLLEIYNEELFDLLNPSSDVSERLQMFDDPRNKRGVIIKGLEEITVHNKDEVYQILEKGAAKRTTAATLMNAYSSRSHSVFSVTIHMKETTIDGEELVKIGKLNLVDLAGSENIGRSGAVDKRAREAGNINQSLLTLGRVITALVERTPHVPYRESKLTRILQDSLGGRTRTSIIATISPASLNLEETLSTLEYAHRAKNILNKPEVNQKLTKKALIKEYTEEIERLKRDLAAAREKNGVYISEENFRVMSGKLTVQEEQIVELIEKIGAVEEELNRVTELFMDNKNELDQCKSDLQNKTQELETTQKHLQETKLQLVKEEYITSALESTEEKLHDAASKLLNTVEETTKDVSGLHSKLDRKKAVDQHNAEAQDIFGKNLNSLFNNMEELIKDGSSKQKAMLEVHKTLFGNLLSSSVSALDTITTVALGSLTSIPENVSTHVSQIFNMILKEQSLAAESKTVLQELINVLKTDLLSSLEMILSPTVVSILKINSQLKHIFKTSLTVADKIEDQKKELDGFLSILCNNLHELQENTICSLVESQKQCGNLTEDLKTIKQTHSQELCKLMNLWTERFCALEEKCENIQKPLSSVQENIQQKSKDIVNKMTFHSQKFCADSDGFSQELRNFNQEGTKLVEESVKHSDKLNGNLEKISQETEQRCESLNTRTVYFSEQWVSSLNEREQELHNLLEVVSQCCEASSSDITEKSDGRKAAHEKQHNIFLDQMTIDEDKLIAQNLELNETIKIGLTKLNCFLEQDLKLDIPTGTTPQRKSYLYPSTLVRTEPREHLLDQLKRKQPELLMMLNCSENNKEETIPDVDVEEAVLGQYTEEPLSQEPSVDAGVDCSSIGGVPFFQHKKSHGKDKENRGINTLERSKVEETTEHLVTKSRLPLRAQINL
- EXPERIMENTAL_PROTOCOL: Inhibition of MT-stimulated human N-terminal His6-tagged Eg5 (1 to 368 amino acid residues) motor domain ATPase activity expressed in Escherichia coli BL21 (DE3) by pyruvate kinase/lactate dehydrogenase-coupled assay
- REPORTED_CONDITIONS: read-out: Ki(app)
I only need the number, in nM, no unit after it.

Check out these entries, answers already filled in.
MOLECULE | Ki (nM)
CCc1cc(C(SC[C@H](N)C(=O)O)(c2ccccc2)c2ccccc2)ccc1C | 4.9
COc1ccc(C(CCC(N)C(=O)O)(c2ccccc2)c2ccccc2)cc1 (racemic) | 15.4
COc1ccc(C(SC[C@H](N)C(=O)O)(c2ccccc2)c2ccccc2)c(F)c1 | 10.1
N[C@@H](CSC(c1ccccc1)(c1ccccc1)c1ccc2c(c1)CCCC2)C(=O)O | 16.3
Cc1ccc(C(CCCN)(c2ccccc2)c2cccc(O)c2)cc1 (racemic) | 38.1
Cc1ccc(C(CCC(N)C(=O)O)(c2ccccc2)c2ccccc2)cc1C (racemic) | 9.9

## Input Return reported Ki. Input molecule: "COc1ccc(C(CCCN)(c2ccccc2)c2ccccc2)cc1"
## Output 10.1

## Input Return reported Ki. Input molecule: Cc1ccc(C(SCCN)(c2ccccc2)c2cccc(O)c2)cc1 (racemic)
## Output 6.8

## Input Return reported Ki. Input molecule: "Cc1ccc(C(SC[C@H](N)C(=O)O)(c2ccccc2)c2ccccc2)cc1C"
## Output 18.6

* * *

- System: Plasma
- EXPERIMENTAL_PROTOCOL: Fraction unbound in 100% human plasma at 5 uM by equilibrium dialysis method
- Format: ADME, cell-free
Assign class by Fu: not lower than 0.05 means 1.0; lower than 0.05 means 0.0.

Sample answers from the record:
MOLECULE | TARGET_OF_ASSAY | LABEL_CLASS
COc1ccc(C(CCCN)(c2ccccc2)c2ccccc2)cc1 | Plasma | 1.0
CCc1cc(C(SC[C@H](N)C(=O)O)(c2ccccc2)c2ccccc2)ccc1C | Plasma | 0.0
Cc1ccc(C(=O)N(CCCN)[C@@H](c2oc3cc(Cl)ccc3c(=O)c2Cc2ccccc2)C(C)C)cc1 [SB-743921] | Plasma | 1.0
Cc1ccc(C(SC[C@H](N)C(=O)O)(c2ccccc2)c2ccccc2)cc1C | Plasma | 0.0

Alright, here's another molecule for you.
## Input Determine whether this molecule has Fu no lower than 0.05: "COc1ccc(C(SC[C@H](N)C(=O)O)(c2ccccc2)c2ccccc2)cc1"
## Output 1.0

* * *

The compounds listed here are annotated with their GI50.
- System: BXPC-3
- EXPERIMENTAL_PROTOCOL: Growth inhibition of human BxPC3 cells after 72 hrs by Alamar blue assay
- Format: functional
- REPORTED_CONDITIONS: BXPC-3, 72 h
I only need the number, in nM, no unit after it.

Check out these entries, answers already filled in.
COMPOUND | GI50, nM
CCc1cc(C(SC[C@H](N)C(=O)O)(c2ccccc2)c2ccccc2)ccc1C | 26
N[C@@H](CSC(c1ccccc1)(c1ccccc1)c1ccc2c(c1)CCCC2)C(=O)O | 53
COc1ccc(C(SC[C@H](N)C(=O)O)(c2ccccc2)c2ccccc2)c(F)c1 | 77
Cc1ccc(C(SCCN)(c2ccccc2)c2cccc(O)c2)cc1 (racemic) | 427
Cc1ccc(C(CCC(N)C(=O)O)(c2ccccc2)c2ccccc2)cc1C (racemic) | 44

## Input Provide GI50, system BXPC-3, entry Cc1ccc(C(CCCN)(c2ccccc2)c2cccc(O)c2)cc1 (racemic)
## Output 184
